Reference for the values: paper PMC3042382

# Target Under Test: tnPXR (Tetraodon PXR, GAL4/LBD) (Tetraodon nigroviridis, UniProt H3D8U6)
# Construct: cloned from liver RNA
# Sequence (H3D8U6 entry or part of it): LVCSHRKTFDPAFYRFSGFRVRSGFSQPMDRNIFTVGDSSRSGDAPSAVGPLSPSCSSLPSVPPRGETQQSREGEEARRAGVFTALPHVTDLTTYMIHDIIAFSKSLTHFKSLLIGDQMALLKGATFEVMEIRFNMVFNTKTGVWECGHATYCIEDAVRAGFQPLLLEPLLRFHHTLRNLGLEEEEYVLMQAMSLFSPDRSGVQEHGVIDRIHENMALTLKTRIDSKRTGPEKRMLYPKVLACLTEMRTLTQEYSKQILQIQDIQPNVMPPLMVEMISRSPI
# Test Description: GAL4/LBD luciferase transactivation
# Format: cell-based
# Condition Info: agonist; HepG2-NTCP cells
Reported Property: EC50 (µM)
Number in µM, nothing else.

[[record]]
molecule = "CCCCOC(=O)c1ccc(N)cc1 [n-butyl 4-amino benzoate]"
value_measured = 25.6

[[record]]
molecule = "C[C@H](CCC(=O)NCCS(=O)(=O)O)[C@H]1CC[C@H]2[C@@H]3[C@H](O)C[C@@H]4C[C@H](O)CC[C@]4(C)[C@H]3CC[C@]12C [TCDCA, taurochenodeoxycholic acid]"
value_measured = 4.8


Prompt: Answer with EC50 of CC(=O)[C@H]1CC[C@H]2[C@@H]3CC[C@@H]4CC(=O)CC[C@]4(C)[C@H]3CC[C@]12C [5β-pregnane-3,20-dione] measured for tnPXR (Tetraodon PXR, GAL4/LBD) (Tetraodon nigroviridis, UniProt H3D8U6).
Completion: 4
